Every entry's value here was drawn from PubChem BioAssay (EPA / NIEHS).

PROTOCOL DESCRIPTION: ATG_E_Box_CIS: Attagene CIS-FACTORIAL HepG2 Assay for human Enhancer Box (E-box) (AID 2282936)
RUN CONDITIONS: HepG2 E-box cis-reporter transcription, actives raise or lower the signal
The source made the active and inactive calls. How the source made its calls: active means hit-call score of the fitted dose curve at least 0.9, where 1 is the maximum; inactive means score below 0.9.
Write down the outcome that applies. Available outcomes: 1.0 (active), 0.0 (inactive)

CSCCC=O    0.0
Cc1ncc[nH]1    0.0
CN(c1nccc(=O)[nH]1)C1CCN(c2nc3ccccc3n2Cc2ccc(F)cc2)CC1    0.0
COC(=O)c1ccc(OC)cc1    0.0
CCOc1ccc(NC(=O)CC(C)O)cc1 (stereo not given)    0.0
CC(Oc1cc(Cl)ccc1Cl)C(=O)O (stereo not given)    0.0
OC[C@H]1O[C@@H](Oc2ccc(O)cc2)[C@H](O)[C@@H](O)[C@@H]1O    0.0
c1ccc(CN(Cc2ccccc2)Cc2ccccc2)cc1    0.0
CCOc1ccc(NC(=O)CC(C)=O)cc1    0.0
ON=C1CCCCC1    0.0

Would you mind telling me which call this test gave `CCCCCCC(C)(C)S` ?
0.0

Would you mind telling me which call this test gave `N#Cc1ccc(CC(=O)c2cccc(C(F)(F)F)c2)cc1` ?
1.0

Would you mind telling me which call this test gave `CC(C)(C)C1=CC(=O)C(C(C)(C)C)=CC1=O` ?
0.0

Would you mind telling me which call this test gave `C=C(C)C(=O)OCCOCCOCCOCCOC(=O)C(=C)C` ?
0.0

Would you mind telling me which call this test gave `Brc1ccc(Br)c(Br)c1` ?
0.0

Would you mind telling me which call this test gave `CC/C=C\CCOC(=O)CC` ?
0.0

* * *

PROTOCOL DESCRIPTION: ATG_VDRE_CIS: Attagene CIS-FACTORIAL HepG2 Assay for human Vitamin D Receptor Element (VDRE) (AID 2282968)
RUN CONDITIONS: HepG2 VDRE cis-reporter transcription, actives raise or lower the signal
The source made the active and inactive calls. The calls were made as follows: active = hit-call score of the fitted dose curve at least 0.9, where 1 is the maximum; inactive = score below 0.9.
Write down the outcome that applies. Available outcomes: active, inactive

Would you mind telling me which call this test gave C=C[Si]1(C)O[Si](C)(C=C)O[Si](C)(C=C)O[Si](C)(C=C)O1 (stereo not given) ?
inactive

Would you mind telling me which call this test gave CC(C)=CCCC(C)CCOC=O (stereo not given) ?
inactive

Would you mind telling me which call this test gave `CC(C)c1ccccc1O` ?
inactive

Would you mind telling me which call this test gave `C=CCOC(=O)CCCCCC` ?
inactive

Would you mind telling me which call this test gave `CCCC[P+](CCCC)(CCCC)CCCC` ?
inactive

Would you mind telling me which call this test gave `CC(=O)Nc1ccc(C(=O)CCl)cc1` ?
active

Would you mind telling me which call this test gave `COS(=O)(=O)O` ?
inactive

Would you mind telling me which call this test gave `CCOC(=O)CN` ?
inactive

Would you mind telling me which call this test gave `Cc1ccc(OC(=O)c2ccccc2O)cc1` ?
inactive

Would you mind telling me which call this test gave `NCCNc1cccc2ccccc12` ?
active

Would you mind telling me which call this test gave `CCCCCCCCC=CCCCCCCCC1=NCCN1CCO` ?
inactive

Would you mind telling me which call this test gave `C=C(C)[C@H]1CC=C(C)C(=O)C1` ?
inactive

Would you mind telling me which call this test gave `CC(=O)O[C@@H]1C[C@@H]2CC[C@@]1(C)C2(C)C` ?
inactive
